B1: PhoQ; a variant is named by its letters at X, in order, P23837 (parent)
chain: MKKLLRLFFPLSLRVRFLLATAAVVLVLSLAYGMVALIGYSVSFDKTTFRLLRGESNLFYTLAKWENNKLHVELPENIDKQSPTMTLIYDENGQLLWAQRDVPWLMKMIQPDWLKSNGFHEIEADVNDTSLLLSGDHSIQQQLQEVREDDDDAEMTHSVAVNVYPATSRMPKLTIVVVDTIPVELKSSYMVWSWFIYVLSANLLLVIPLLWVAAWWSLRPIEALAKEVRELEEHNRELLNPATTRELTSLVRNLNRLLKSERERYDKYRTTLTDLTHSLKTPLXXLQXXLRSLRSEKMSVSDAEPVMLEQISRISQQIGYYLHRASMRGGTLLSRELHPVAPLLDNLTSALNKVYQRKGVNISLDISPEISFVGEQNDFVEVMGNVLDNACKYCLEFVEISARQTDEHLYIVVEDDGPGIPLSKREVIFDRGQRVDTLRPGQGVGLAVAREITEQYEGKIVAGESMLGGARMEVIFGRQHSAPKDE

# Variants of: B1
# protocolSummary: enrichment ratio after two sorts for PhoP signalling (ratio (wild type AVST 3.29)); higher = more functional
# testConditions: with PhoP (E. coli)
Over roughly 140,000 sequences, “enrichment ratio after two sorts for PhoP signalling” has its median near 0; the highest 2% begin near 11. For the sample, the highest values were picked, then their nearest neighbours and some sequences at random.
assayEndpoint: enrichment ratio

IN: Assign enrichment ratio to the following record: SGHF
OUT: ≤ 0.25

IN: Give recorded enrichment ratio. IWAV
OUT: ≤ 0.25

IN: Look up enrichment ratio of ALWM and report it.
OUT: ≤ 0.25

IN: Look up and state reported enrichment ratio for SGWV
OUT: ≤ 0.25

IN: For the variant QWLW , give its reported enrichment ratio.
OUT: ≤ 0.25

IN: Look up enrichment ratio of ENAI and report it.
OUT: ≤ 0.25

IN: Answer with the recorded enrichment ratio for the variant listed here: ALAM
OUT: 12.2

IN: Identify enrichment ratio associated with the variant NVLT
OUT: ≤ 0.25

IN: Please give the documented enrichment ratio of QQCV
OUT: ≤ 0.25

IN: In one line, give reported enrichment ratio of the entry VSKE .
OUT: ≤ 0.25

IN: Quickly give me recorded enrichment ratio for AIAM
OUT: 6.08

IN: Annotate the variant DQPT with its measured enrichment ratio.
OUT: ≤ 0.25

IN: For the variant YYVL , give its measured enrichment ratio value.
OUT: ≤ 0.25

IN: Return enrichment ratio (reported value) for this variant: SGCV
OUT: 15.2

IN: Quick one: give measured enrichment ratio for SGMW
OUT: ≤ 0.25

Data provenance is a collection of fitness landscapes (doi:10.1126/science.1257360).
